Entries and their NZJU alone mean value (sensitivity, growth inhibition) values follow.
# Tested on: MCF-7 cells
# protocol-text: Drug sensitivity MTT assay with TRAIL, MCF-7
# Type: cell-based
# Set-up: scale not given here
# measurement-conditions: drug alone (19-100 μM; TRAIL 100 ng/ml), 48 h
Reply with just the number.

Consider the worked cases shown below.
{"compound": "CCCCCCCCNC(=O)[C@@H](NC(=O)c1cc2ccccc2o1)[C@@H](C)O [NZJU45]", "assay-value": 0.021}
{"compound": "CCCCCCCCCCCCNC(=O)[C@@H](NC(=O)c1ccccc1)[C@@H](C)O [NZJU16]", "assay-value": 0.479}
{"compound": "CCCCCCCCCCCCCCNC(=O)[C@@H](NC(=O)c1cccs1)[C@@H](C)O [NZJU34]", "assay-value": 0.444}

Query: // NZJU alone mean value (sensitivity, growth inhibition) lookup, key: CCCCCCCCNC(=O)[C@@H](NC(=O)c1cccs1)[C@@H](C)O [NZJU44]
Result: 0.625

---

# Test system: SW620 cells
# protocol-text: Drug sensitivity MTT assay with TRAIL, SW620
# Assay type: cell-based
# Set-up: scale not given here
# measurement-conditions: mimetic at the dose of its row combined with TRAIL 100 ng/ml, 48 h
Entries and their combine mean value (sensitivity, growth inhibition) values follow.
Reply with just the number.

Consider the worked cases shown below.
{"smiles-input": "CCCCCCCCNC(=O)[C@@H](NC(=O)c1cccs1)[C@@H](C)O", "target-or-test-system": "SW620 cells", "assay-value": 0.853}
{"smiles-input": "CCCCCCCCCCCCNC(=O)[C@@H](NC(=O)c1ccco1)[C@@H](C)O", "target-or-test-system": "SW620 cells", "assay-value": 0.520}
{"smiles-input": "CCCCCCCCCCCCNC(=O)[C@@H](NC(=O)c1ccccc1)[C@@H](C)O", "target-or-test-system": "SW620 cells", "assay-value": 0.607}
{"smiles-input": "CCCCCCCCCCCCCCNC(=O)[C@@H](NC(=O)c1cccs1)[C@@H](C)O", "target-or-test-system": "SW620 cells", "assay-value": 0.664}
{"smiles-input": "CCCCCCCCNC(=O)[C@@H](NC(=O)c1cc2ccccc2o1)[C@@H](C)O", "target-or-test-system": "SW620 cells", "assay-value": 0.516}

Query: // combine mean value (sensitivity, growth inhibition) lookup, key: `C/C=C/C=C/C(=O)N[C@H](C(=O)NCCCCCCCC)[C@@H](C)O`
Result: 0.790

Query: Could you do the same for `CCCCCCCCCCCCNC(=O)[C@@H](NC(=O)c1nccc2ccccc12)[C@@H](C)O` , please?
Result: 0.493

---

# Test system: MCF-7
# protocol-text: MTT cytotoxicity assay, MCF-7 (breast cancer)
# Assay type: cell-based
# measurement-conditions: Homo sapiens, MCF7; Breast Cancer MCF-7, MTT
quantity-name: IC50 (µM)
Write the answer as a number in µM, unit excluded.

{"compound": "C/C=C/C=C/C(=O)N[C@H](C(=O)NCCCCCCCCCCCCCC)[C@@H](C)O", "value-units": "µM", "IC50": 27.8}
{"compound": "CCCCCCCCNC(=O)[C@@H](NC(=O)c1cc2ccccc2o1)[C@@H](C)O", "value-units": "µM", "IC50": 47.2}

Query: // IC50 lookup, key: `CCCCCCCCNC(=O)[C@@H](NC(=O)c1ccccc1)[C@@H](C)O`
Result: 111

Query: Could you do the same for `C/C=C/C=C/C(=O)N[C@H](C(=O)NCCCCCCCC)[C@@H](C)O` , please?
Result: 149

Query: Could you do the same for `CCCCCCCCCCCCCCCCCCNC(=O)[C@@H](NC(=O)c1nccc2ccccc12)[C@@H](C)O` , please?
Result: 30.8

Query: Could you do the same for `CCCCCCCCCCCCCCCCCCNC(=O)[C@@H](NC(=O)c1cccs1)[C@@H](C)O` , please?
Result: 25.7

Query: Could you do the same for `CCCCCCCCCCCCNC(=O)[C@@H](NC(=O)c1cccs1)[C@@H](C)O` , please?
Result: 30.4

Query: Could you do the same for `CCCCCCCCCCCCCCCCCCNC(=O)[C@@H](NC(=O)c1ccco1)[C@@H](C)O` , please?
Result: 21.4

Query: Could you do the same for `CCCCCCCCNC(=O)[C@@H](NC(=O)/C=C/c1ccccc1)[C@@H](C)O` , please?
Result: 35.1

Query: Could you do the same for `CCCCCCCCNC(=O)[C@@H](NC(=O)c1nccc2ccccc12)[C@@H](C)O` , please?
Result: 63.2

Query: Could you do the same for C/C=C/C=C/C(=O)N[C@H](C(=O)NCCCCCCCCCCCCCCCCCC)C(C)O (stereo in doubt) , please?
Result: 79.6

Query: Could you do the same for `CCCCCCCCNC(=O)[C@@H](NC(=O)c1ccco1)[C@@H](C)O` , please?
Result: 91.8

Query: Could you do the same for `CCCCCCCCCCCCCCNC(=O)[C@@H](NC(=O)c1ccccc1)[C@@H](C)O` , please?
Result: 24.8

Query: Could you do the same for `CCCCCCCCCCCCCCCCCCNC(=O)[C@@H](N)[C@@H](C)O` , please?
Result: 27.4

Query: Could you do the same for `CCCCCCCCCCCCCCNC(=O)[C@@H](NC(=O)c1cc2ccccc2o1)[C@@H](C)O` , please?
Result: 23.4

Query: Could you do the same for `CCCCCCCCCCCCCCCCCCNC(=O)[C@@H](NC(=O)/C=C/c1ccccc1)[C@@H](C)O` , please?
Result: 39.2

Query: Could you do the same for `CCCCCCCCCCCCNC(=O)[C@@H](NC(=O)Cc1c[nH]c2ccccc12)[C@@H](C)O` , please?
Result: 15.5

Query: Could you do the same for `CCCCCCCCCCCCCCCCCCNC(=O)[C@@H](NC(=O)c1ccccc1)[C@@H](C)O` , please?
Result: 31.7

Query: Could you do the same for `CCCCCCCCCCCCNC(=O)[C@@H](NC(=O)c1ccco1)[C@@H](C)O` , please?
Result: 67.5
